# target or system: T1, human LAG3 (construct not stated) (human, UniProt P18627 23-450, limits assumed)
# T1 construct: also called human LAG3 protein; antigen
# T1 sequence (looked up): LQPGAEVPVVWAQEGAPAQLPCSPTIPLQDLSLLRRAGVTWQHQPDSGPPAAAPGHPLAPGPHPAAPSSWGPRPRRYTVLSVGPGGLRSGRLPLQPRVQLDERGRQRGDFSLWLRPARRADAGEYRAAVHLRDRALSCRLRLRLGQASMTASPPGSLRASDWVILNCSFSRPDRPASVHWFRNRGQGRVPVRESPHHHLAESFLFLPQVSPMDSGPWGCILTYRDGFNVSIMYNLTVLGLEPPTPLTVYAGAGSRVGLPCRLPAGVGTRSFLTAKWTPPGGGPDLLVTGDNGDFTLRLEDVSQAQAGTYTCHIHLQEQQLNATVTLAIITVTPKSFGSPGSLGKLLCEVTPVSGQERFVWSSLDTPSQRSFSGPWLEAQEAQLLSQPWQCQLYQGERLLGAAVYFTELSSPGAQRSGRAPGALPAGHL
# measurement notes: BLI Octet Red 96, affinity ranking
assay readout: koff (s⁻¹)

147H-13 (antibody, V domains shown, Common light chain; human gamma 1 / kappa constant domains; also called 147H4-13) VH: EVQLVQSGAEVKKPGASVKVSCKASGYTFTNYWLGWIKQAPGQGLEWIGDIYPGGDYINYNEKFKGKATLTADTSISTAYMELSRLRSDDTAVYYCARPNLPGDYWGQGTTVTVSS VL: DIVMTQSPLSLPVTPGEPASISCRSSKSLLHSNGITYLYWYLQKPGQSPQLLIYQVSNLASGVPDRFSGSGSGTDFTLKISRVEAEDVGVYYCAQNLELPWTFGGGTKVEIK ... 0.00234
147H-2 (antibody, V domains shown, Common light chain; human gamma 1 / kappa constant domains) VH: QVQLVQSGAEVKKPGASVKVSCKASGYTFTNYWLGWVRQAPGQGLEWMGDIYPGGDYINYNEKFKGRVTMTADTSISTAYMELSRLRSDDTAVYYCARPNLPGDYWGQGTTVTVSS VL: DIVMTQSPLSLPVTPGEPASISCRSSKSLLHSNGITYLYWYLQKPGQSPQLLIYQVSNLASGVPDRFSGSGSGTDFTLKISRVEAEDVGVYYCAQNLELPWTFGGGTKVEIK ... 0.00314
147H-8 (antibody, V domains shown, Common light chain; human gamma 1 / kappa constant domains) VH: EVQLVQSGAEVKKPGASVKVSCKASGYTFTNYWLGWVRQAPGQGLEWMGDIYPGGDYINYNEKFKGRVTMTRDTSISTAYMELSRLRSDDTAVYYCARPNLPGDYWGQGTTVTVSS VL: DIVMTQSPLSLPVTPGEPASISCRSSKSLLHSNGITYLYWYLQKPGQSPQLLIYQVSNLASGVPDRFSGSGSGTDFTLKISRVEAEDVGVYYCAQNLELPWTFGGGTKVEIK ... 0.00533
147H-1 (antibody, V domains shown) VH: QVQLVQSGAEVKKPGASVKVSCKASGYTFTNYWLGWVRQAPGQGLEWMGDIYPGGDYINYNEKFKGRVTMTRDTSISTAYMELSRLRSDDTAVYYCARPNLPGDYWGQGTTVTVSS VL: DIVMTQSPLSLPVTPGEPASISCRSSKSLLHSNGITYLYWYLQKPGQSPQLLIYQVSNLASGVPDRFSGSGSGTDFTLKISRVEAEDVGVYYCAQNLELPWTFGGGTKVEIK ... 0.00386
147H-6 (antibody, V domains shown, Common light chain; human gamma 1 / kappa constant domains) VH: QVQLVQSGAEVKKPGASVKVSCKASGYTFTNYWLGWIKQAPGQGLEWIGDIYPGGDYINYNEKFKGKATLTADTSISTAYMELSRLRSDDTAVYYCARPNLPGDYWGQGTTVTVSS VL: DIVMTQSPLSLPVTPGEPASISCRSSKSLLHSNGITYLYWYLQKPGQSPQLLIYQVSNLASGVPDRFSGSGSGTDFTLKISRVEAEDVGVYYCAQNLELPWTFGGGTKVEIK ... 0.00184
147H-9 (antibody, V domains shown, Common light chain; human gamma 1 / kappa constant domains) VH: EVQLVQSGAEVKKPGASVKVSCKASGYTFTNYWLGWVRQAPGQGLEWMGDIYPGGDYINYNEKFKGRVTMTADTSISTAYMELSRLRSDDTAVYYCARPNLPGDYWGQGTTVTVSS VL: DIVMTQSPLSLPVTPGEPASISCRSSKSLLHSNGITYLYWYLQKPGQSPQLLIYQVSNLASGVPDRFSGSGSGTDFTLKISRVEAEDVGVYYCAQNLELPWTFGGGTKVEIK ... 0.00448
147H-4 (antibody, V domains shown, Common light chain; human gamma 1 / kappa constant domains) VH: QVQLVQSGAEVKKPGASVKVSCKASGYTFTNYWLGWVRQAPGQGLEWMGDIYPGGDYINYNEKFKGKATLTADTSISTAYMELSRLRSDDTAVYYCARPNLPGDYWGQGTTVTVSS VL: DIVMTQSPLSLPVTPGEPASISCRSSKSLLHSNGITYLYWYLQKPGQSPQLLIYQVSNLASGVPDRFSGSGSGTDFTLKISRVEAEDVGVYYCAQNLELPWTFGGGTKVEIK ... 0.00343
147H-12 (antibody, V domains shown, Common light chain; human gamma 1 / kappa constant domains) VH: EVQLVQSGAEVKKPGASVKVSCKASGYTFTNYWLGWVRQAPGQGLEWIGDIYPGGDYINYNEKFKGKATLTADTSISTAYMELSRLRSDDTAVYYCARPNLPGDYWGQGTTVTVSS VL: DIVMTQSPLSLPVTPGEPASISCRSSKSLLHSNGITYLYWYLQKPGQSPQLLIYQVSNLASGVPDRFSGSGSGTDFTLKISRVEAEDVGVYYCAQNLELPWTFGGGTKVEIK ... 0.00344
147H-3 (antibody, V domains shown, Common light chain; human gamma 1 / kappa constant domains) VH: QVQLVQSGAEVKKPGASVKVSCKASGYTFTNYWLGWVRQAPGQGLEWMGDIYPGGDYINYNEKFKGRVTLTADTSISTAYMELSRLRSDDTAVYYCARPNLPGDYWGQGTTVTVSS VL: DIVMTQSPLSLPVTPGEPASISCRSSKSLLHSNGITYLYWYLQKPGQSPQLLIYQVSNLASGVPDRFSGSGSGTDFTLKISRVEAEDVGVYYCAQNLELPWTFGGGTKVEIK ... 0.00338
147H-7 (antibody, V domains shown, Common light chain; human gamma 1 / kappa constant domains) VH: QVQLVQSGAEVKKPGASVKVSCKASGYTFTNYWLGWIKQAPGQGLEWIGDIYPGGDYINYNEKFKGKATLTADTSISTAYMELSRLRSDDTAVYFCARPNLPGDYWGQGTTVTVSS VL: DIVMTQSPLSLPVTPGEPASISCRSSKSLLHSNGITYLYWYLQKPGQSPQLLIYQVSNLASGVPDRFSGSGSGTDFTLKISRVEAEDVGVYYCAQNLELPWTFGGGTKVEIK ... 0.00239
